- assayOverview: Phase 1 rising-single-dose pharmacokinetic study in healthy adult subjects (Example 1)
- Type: in vivo, human
- setupConditions: human, plasma; single oral dose 800 mg, mean, n = 6
attributeMeasured: Cmax (ng/mL)
The reply should be a number in ng/mL, with the unit left off.

Challenge: Any idea what its Cmax is? The molecule is CC(C)(C)NC(=O)N[C@H](C(=O)N1C[C@H]2[C@@H]([C@H]1C(=O)NC(CC1CCC1)C(=O)C(N)=O)C2(C)C)C(C)(C)C (mixture of isomers)
Response given: 616

====

- assayOverview: Phase 1 rising-single-dose pharmacokinetic study in healthy adult subjects (Example 1)
- Type: in vivo, human
- setupConditions: human, plasma; single oral dose 100 mg, mean, n = 6
attributeMeasured: Vd/F (L)
The reply should be a number in L, with the unit left off.

Challenge: Any idea what its Vd/F is? The compound is CC(C)(C)NC(=O)N[C@H](C(=O)N1C[C@H]2[C@@H]([C@H]1C(=O)NC(CC1CCC1)C(=O)C(N)=O)C2(C)C)C(C)(C)C (mixture of isomers)
Response given: 2680

Measured values drawn from patent US20060276407A1 for this set.
